The reported measurements were obtained from patent US20020152038A1.

- MEASUREMENT NOTES: Headspace above the milkshake, SPME-GC, relative partition parameters
- Assay type: physicochemical
- CONDITION: headspace vs milkshake, 0.2% aroma mixture, 2 h at 35° C., SPME 15 min
The following ranges of Activity (logarithmic partition parameter above a milkshake) define the classes used here: low bracket: < -0.7; middle bracket: ≥ -0.7 and < 0.2; high bracket: ≥ 0.2

- MOLECULE: "CC(=O)OCc1ccccc1 [Benzyl acetate]"
  QUALITATIVE LABEL: "high bracket"
- MOLECULE: "C=C1C2CCC(C2)C1(C)C (stereo not shown) [Camphene]"
  QUALITATIVE LABEL: "high bracket"
- MOLECULE: "C=CC(C)CCCC(C)(C)O (stereo not shown) [Dihydromyrcenol]"
  QUALITATIVE LABEL: "high bracket"
- MOLECULE: "CC(CC=O)CCCC(C)(C)O (stereo not shown) [Hydroxycitronellal]"
  QUALITATIVE LABEL: "low bracket"
- MOLECULE: "C[C@@H]1CC[C@H]2C(C)(C)[C@H]3C[C@@]12CC[C@@]3(C)O [Cedrol]"
  QUALITATIVE LABEL: "low bracket"
- MOLECULE: "OCCc1ccccc1 [PEA, phenylethyl alcohol]"
  QUALITATIVE LABEL: "middle bracket"
- MOLECULE: "CC(=O)/C=C/C1C(C)=CCCC1(C)C (stereo not drawn) [Ionone, α, Ionone, alpha]"
  QUALITATIVE LABEL: "middle bracket"
- MOLECULE: "CC(C)=CCC/C(C)=C/CO [Geraniol]"
  QUALITATIVE LABEL: "middle bracket"
- MOLECULE: "CCOC(=O)c1ccccc1C(=O)OCC [Diethyl phthalate]"
  QUALITATIVE LABEL: "low bracket"
- MOLECULE: "CCCCCC/C(C=O)=C\\c1ccccc1 [Hexylcinnamaldehyde, α]"
  QUALITATIVE LABEL: "low bracket"
- MOLECULE: "CC(=O)OC(C)(C)Cc1ccccc1 [DMBCA, dimethylbenzylcarbinyl acetate]"
  QUALITATIVE LABEL: "high bracket"
